- Experimental System: T1, human VPAC2 receptor (human, UniProt P41587 24-438)
- T1 sequence (looked up): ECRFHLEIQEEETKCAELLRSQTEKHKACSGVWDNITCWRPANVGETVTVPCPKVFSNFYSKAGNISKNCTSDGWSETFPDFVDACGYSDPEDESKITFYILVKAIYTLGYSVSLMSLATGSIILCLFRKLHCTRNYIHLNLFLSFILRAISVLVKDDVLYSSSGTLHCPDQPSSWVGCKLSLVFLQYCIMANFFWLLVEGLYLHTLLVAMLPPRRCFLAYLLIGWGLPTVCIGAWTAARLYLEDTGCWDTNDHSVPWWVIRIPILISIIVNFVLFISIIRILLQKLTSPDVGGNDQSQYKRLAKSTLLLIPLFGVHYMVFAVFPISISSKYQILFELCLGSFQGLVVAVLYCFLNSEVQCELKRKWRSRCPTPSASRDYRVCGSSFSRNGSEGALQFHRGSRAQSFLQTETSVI
- Method Summary: cell-based or functional assay
Square brackets hold non-standard residues; d marks the D form. Ends that are not written are not given here. * marks the point of attachment. Orn = NCCC[C@H](N)C(=O)O; Hexanoyl = CCCCCC(=O)*; Aib = CC(C)(N)C(=O)O
hey, just use Condition met if measured Human VPAC2 Receptor: Alpha Screen (EC50; nM), cAMP generation is less than 0.3 nM, otherwise Condition not met

Q: Please let me know if HSDAVFTDNYTRLRXQVAAXKYLQSIKXXGGPSSGAPPPS (N-terminal hexanoyl (C6); Aib at 15, 20 and 28; Orn at 29) [VPAC2 receptor peptide agonist P357] shows Human VPAC2 Receptor: Alpha Screen (EC50; nM), cAMP generation below 0.3 nM.
A: Condition met

Q: Please let me know if HSDAVFTDNYTXLRXQSAAXKYLQSIXNXGGPSSGAPPPS (N-terminal hexanoyl (C6); Orn at 12, 27 and 29; Aib at 15 and 20) [VPAC2 receptor peptide agonist P389] shows Human VPAC2 Receptor: Alpha Screen (EC50; nM), cAMP generation below 0.3 nM.
A: Condition met

Q: Please let me know if Hexanoyl-HSDAVFTDNYT[Orn]SR[Aib]QVAA[Aib]KYLQSI[Orn]N[Orn]GGPSSGAPPPS [VPAC2 receptor peptide agonist P391] shows Human VPAC2 Receptor: Alpha Screen (EC50; nM), cAMP generation below 0.3 nM.
A: Condition not met

Q: Please let me know if Hexanoyl-HSDAVFTDSYT[Orn]LR[Aib]QVAA[Aib]KYLQSI[Orn]N[Orn]GGPSSGAPPPS [VPAC2 receptor peptide agonist P392] shows Human VPAC2 Receptor: Alpha Screen (EC50; nM), cAMP generation below 0.3 nM.
A: Condition met

Q: Please let me know if HSDAVFTDNYTXLRXQVSAXKYLQSIXNXGGPSSGAPPPS (N-terminal hexanoyl (C6); Orn at 12, 27 and 29; Aib at 15 and 20) [VPAC2 receptor peptide agonist P388] shows Human VPAC2 Receptor: Alpha Screen (EC50; nM), cAMP generation below 0.3 nM.
A: Condition not met
